biological target: Proteinase-activated receptor 1 (Homo sapiens, UniProt P25116); assay: Ability to inhibit the binding of [3H]S-(p-F-Phe)-homoarginine-L-homoarginine-KY-NH2 to thrombin receptor on the membranes of CHRF-288-11 cells
As shown below, each of these molecules has a reported IC50 value.
RESULT_TYPE: IC50

1. NCC[C@H](NC(=O)[C@H](Cc1ccc(F)c(F)c1)NC(=O)Nc1ccc2c(CN3CCCC3)cn(Cc3c(Cl)cccc3Cl)c2c1)C(=O)NCCc1ccccc1 | 120 nM
2. NCC[C@H](NC(=O)[C@H](Cc1ccc(F)c(F)c1)NC(=O)Nc1ccc2c(CN3CCCC3)cn(Cc3c(Cl)cccc3Cl)c2c1)C(=O)NCc1cccs1 | 230 nM
3. CCNCCNC(=O)[C@H](CCN)NC(=O)[C@H](Cc1ccc(F)c(F)c1)NC(=O)Nc1ccc2c(CN3CCCC3)cn(Cc3c(Cl)cccc3Cl)c2c1 | 90 nM
4. NCCC[C@H](NC(=O)[C@H](Cc1ccc(F)c(F)c1)NC(=O)Nc1ccc2c(CN3CCCC3)cn(Cc3c(Cl)cccc3Cl)c2c1)C(=O)NCCN1CCCC1 | 310 nM

====

test: Ability to block U-46,619 (0.3 uM)-induced platelet aggregation; format: functional
RESULT_TYPE: IC50 (µM)

1) CSC[C@H](NC(=O)[C@H](Cc1ccc(F)c(F)c1)NC(=O)Nc1ccc2c(CN3CCCC3)cn(Cc3c(Cl)cccc3Cl)c2c1)C(=O)NCCN | 18.6
2) COc1ccc(CNC(=O)[C@H](CCN)NC(=O)[C@H](Cc2ccc(F)c(F)c2)NC(=O)Nc2ccc3c(CN4CCCC4)cn(Cc4c(Cl)cccc4Cl)c3c2)cc1 | 6.4
3) CCNCCNC(=O)[C@H](CCN)NC(=O)[C@H](Cc1ccc(F)c(F)c1)NC(=O)Nc1ccc2c(CN3CCCC3)cn(Cc3c(Cl)cccc3Cl)c2c1 | 13.7
4) NCC[C@H](NC(=O)[C@H](Cc1ccc(F)c(F)c1)NC(=O)Nc1ccc2c(CN3CCCC3)cn(Cc3c(Cl)cccc3Cl)c2c1)C(=O)NCCc1ccccn1 | 10.3

====

test: Ability to block U-46,619 (0.3 uM)-induced platelet aggregation; assay type: functional
Reported IC50 values for the following compounds.
RESULT_TYPE: IC50 (µM)

1. NCC[C@H](NC(=O)[C@H](Cc1ccc(F)c(F)c1)NC(=O)Nc1ccc2c(CN3CCCC3)cn(Cc3c(Cl)cccc3Cl)c2c1)C(=O)NCCc1ccccc1 | 7.6
2. NCCCNC(=O)[C@H](CCN)NC(=O)[C@H](Cc1ccc(Cl)cc1)NC(=O)Nc1ccc2c(CN3CCCC3)cn(Cc3c(Cl)cccc3Cl)c2c1 | 17.3
3. NCC[C@H](NC(=O)[C@H](Cc1ccc(F)c(F)c1)NC(=O)Nc1ccc2c(CN3CCCC3)cn(Cc3c(Cl)cccc3Cl)c2c1)C(=O)NCc1ccccn1 | 19.8
4. NCCCNC(=O)[C@H](Cc1cnc[nH]1)NC(=O)[C@H](Cc1ccc(Cl)cc1)NC(=O)Nc1ccc2c(CN3CCCC3)cn(Cc3c(Cl)cccc3Cl)c2c1 | 18.6
5. NCCC[C@H](NC(=O)[C@H](Cc1ccc(F)c(F)c1)NC(=O)Nc1ccc2c(CN3CCCC3)cn(Cc3c(Cl)cccc3Cl)c2c1)C(=O)NCCN1CCCC1 | 22
6. CSCC[C@H](NC(=O)[C@H](Cc1ccc(F)c(F)c1)NC(=O)Nc1ccc2c(CN3CCCC3)cn(Cc3c(Cl)cccc3Cl)c2c1)C(=O)NCCN | 24

====

experiment: Ability to block collagen (3 ug/mL)-induced platelet aggregation; format: functional
# key: entry, value: IC50
RESULT_TYPE: IC50 (µM)

1) COc1ccc(CNC(=O)[C@H](CCN)NC(=O)[C@H](Cc2ccc(F)c(F)c2)NC(=O)Nc2ccc3c(CN4CCCC4)cn(Cc4c(Cl)cccc4Cl)c3c2)cc1 | 6.7
2) NCCC[C@H](NC(=O)[C@H](Cc1ccc(F)c(F)c1)NC(=O)Nc1ccc2c(CN3CCCC3)cn(Cc3c(Cl)cccc3Cl)c2c1)C(=O)NCCN1CCCC1 | 16
3) NCCNC(=O)[C@H](Cc1cccs1)NC(=O)[C@H](Cc1ccc(F)c(F)c1)NC(=O)Nc1ccc2c(CN3CCCC3)cn(Cc3c(Cl)cccc3Cl)c2c1 | 16.5
4) CSCC[C@H](NC(=O)[C@H](Cc1ccc(F)c(F)c1)NC(=O)Nc1ccc2c(CN3CCCC3)cn(Cc3c(Cl)cccc3Cl)c2c1)C(=O)NCCN | 4.7
5) NCCCNC(=O)[C@H](Cc1cnc[nH]1)NC(=O)[C@H](Cc1ccc(Cl)cc1)NC(=O)Nc1ccc2c(CN3CCCC3)cn(Cc3c(Cl)cccc3Cl)c2c1 | 30
6) NCC[C@H](NC(=O)[C@H](Cc1ccc(F)c(F)c1)NC(=O)Nc1ccc2c(CN3CCCC3)cn(Cc3c(Cl)cccc3Cl)c2c1)C(=O)NCc1ccccn1 | 8.4

====

test: Ability to block collagen (3 ug/mL)-induced platelet aggregation; format: functional
pIC50: −log10 of the molar value.
# pIC50 per entry
RESULT_TYPE: pIC50

1. NCC[C@H](NC(=O)[C@H](Cc1ccc(F)c(F)c1)NC(=O)Nc1ccc2c(CN3CCCC3)cn(Cc3c(Cl)cccc3Cl)c2c1)C(=O)NCCc1ccccn1 | 5.18
2. NCC[C@H](NC(=O)[C@H](Cc1ccc(F)c(F)c1)NC(=O)Nc1ccc2c(CN3CCCC3)cn(Cc3c(Cl)cccc3Cl)c2c1)C(=O)NCCc1ccccc1 | 5.52
3. CSC[C@H](NC(=O)[C@H](Cc1ccc(F)c(F)c1)NC(=O)Nc1ccc2c(CN3CCCC3)cn(Cc3c(Cl)cccc3Cl)c2c1)C(=O)NCCN | 4.57

====

Target: Proteinase-activated receptor 1 (Homo sapiens, UniProt P25116)
Sequence (P25116 whole entry): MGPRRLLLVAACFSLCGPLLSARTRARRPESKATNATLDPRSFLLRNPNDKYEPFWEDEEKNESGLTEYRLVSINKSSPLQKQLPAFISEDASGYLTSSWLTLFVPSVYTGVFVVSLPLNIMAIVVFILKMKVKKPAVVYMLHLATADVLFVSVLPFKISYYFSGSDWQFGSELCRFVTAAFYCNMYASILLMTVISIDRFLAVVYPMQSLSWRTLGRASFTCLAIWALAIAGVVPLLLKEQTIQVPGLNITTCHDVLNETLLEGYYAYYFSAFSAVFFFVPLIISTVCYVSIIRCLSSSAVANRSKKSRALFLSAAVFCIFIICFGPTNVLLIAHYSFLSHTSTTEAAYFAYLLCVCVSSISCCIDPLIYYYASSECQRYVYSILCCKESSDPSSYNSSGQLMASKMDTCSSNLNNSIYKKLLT
Assay: Ability to inhibit the binding of [3H]S-(p-F-Phe)-homoarginine-L-homoarginine-KY-NH2 to thrombin receptor on the membranes of CHRF-288-11 cells
Rule for this label: condition met means IC50 is less than 60 nM; condition not met means IC50 is at least 60 nM.

1) COc1ccc(CNC(=O)[C@H](CCN)NC(=O)[C@H](Cc2ccc(F)c(F)c2)NC(=O)Nc2ccc3c(CN4CCCC4)cn(Cc4c(Cl)cccc4Cl)c3c2)cc1 | condition not met
2) CSCC[C@H](NC(=O)[C@H](Cc1ccc(F)c(F)c1)NC(=O)Nc1ccc2c(CN3CCCC3)cn(Cc3c(Cl)cccc3Cl)c2c1)C(=O)NCCN | condition met
3) NCC[C@H](NC(=O)[C@H](Cc1ccc(F)c(F)c1)NC(=O)Nc1ccc2c(CN3CCCC3)cn(Cc3c(Cl)cccc3Cl)c2c1)C(=O)NCc1ccco1 | condition not met
4) NCCNC(=O)[C@H](Cc1ccncc1)NC(=O)[C@H](Cc1ccccc1F)NC(=O)Nc1ccc2c(CN3CCCC3)cn(Cc3c(Cl)cccc3Cl)c2c1 | condition not met
5) NCCCNC(=O)[C@H](Cc1cnc[nH]1)NC(=O)[C@H](Cc1ccc(Cl)cc1)NC(=O)Nc1ccc2c(CN3CCCC3)cn(Cc3c(Cl)cccc3Cl)c2c1 | condition not met

====

test: Ability to block thrombin (0.15 nM)-induced platelet aggregation; format: functional
RESULT_TYPE: IC50 (nM)

1) COc1ccc(CNC(=O)[C@H](CCN)NC(=O)[C@H](Cc2ccc(F)c(F)c2)NC(=O)Nc2ccc3c(CN4CCCC4)cn(Cc4c(Cl)cccc4Cl)c3c2)cc1 | 700
2) NCC[C@H](NC(=O)[C@H](Cc1ccc(F)c(F)c1)NC(=O)Nc1ccc2c(CN3CCCC3)cn(Cc3c(Cl)cccc3Cl)c2c1)C(=O)NCCN1CCCC1 | 460
3) CSC[C@H](NC(=O)[C@H](Cc1ccc(F)c(F)c1)NC(=O)Nc1ccc2c(CN3CCCC3)cn(Cc3c(Cl)cccc3Cl)c2c1)C(=O)NCCN | 1300
4) CSCC[C@H](NC(=O)[C@H](Cc1ccc(F)c(F)c1)NC(=O)Nc1ccc2c(CN3CCCC3)cn(Cc3c(Cl)cccc3Cl)c2c1)C(=O)NCCN | 220
5) NCC[C@H](NC(=O)[C@H](Cc1ccc(F)c(F)c1)NC(=O)Nc1ccc2c(CN3CCCC3)cn(Cc3c(Cl)cccc3Cl)c2c1)C(=O)NCCc1ccccc1 | 810
6) NCC[C@H](NC(=O)[C@H](Cc1ccc(F)c(F)c1)NC(=O)Nc1ccc2c(CN3CCCC3)cn(Cc3c(Cl)cccc3Cl)c2c1)C(=O)NCc1cccs1 | 800
